# Assay Target: T1, EsCas13d, nuclease-dead (Eubacterium siraeum, UniProt B0MS50, R295A;H300A;R849A;H854A)
# T1 sequence: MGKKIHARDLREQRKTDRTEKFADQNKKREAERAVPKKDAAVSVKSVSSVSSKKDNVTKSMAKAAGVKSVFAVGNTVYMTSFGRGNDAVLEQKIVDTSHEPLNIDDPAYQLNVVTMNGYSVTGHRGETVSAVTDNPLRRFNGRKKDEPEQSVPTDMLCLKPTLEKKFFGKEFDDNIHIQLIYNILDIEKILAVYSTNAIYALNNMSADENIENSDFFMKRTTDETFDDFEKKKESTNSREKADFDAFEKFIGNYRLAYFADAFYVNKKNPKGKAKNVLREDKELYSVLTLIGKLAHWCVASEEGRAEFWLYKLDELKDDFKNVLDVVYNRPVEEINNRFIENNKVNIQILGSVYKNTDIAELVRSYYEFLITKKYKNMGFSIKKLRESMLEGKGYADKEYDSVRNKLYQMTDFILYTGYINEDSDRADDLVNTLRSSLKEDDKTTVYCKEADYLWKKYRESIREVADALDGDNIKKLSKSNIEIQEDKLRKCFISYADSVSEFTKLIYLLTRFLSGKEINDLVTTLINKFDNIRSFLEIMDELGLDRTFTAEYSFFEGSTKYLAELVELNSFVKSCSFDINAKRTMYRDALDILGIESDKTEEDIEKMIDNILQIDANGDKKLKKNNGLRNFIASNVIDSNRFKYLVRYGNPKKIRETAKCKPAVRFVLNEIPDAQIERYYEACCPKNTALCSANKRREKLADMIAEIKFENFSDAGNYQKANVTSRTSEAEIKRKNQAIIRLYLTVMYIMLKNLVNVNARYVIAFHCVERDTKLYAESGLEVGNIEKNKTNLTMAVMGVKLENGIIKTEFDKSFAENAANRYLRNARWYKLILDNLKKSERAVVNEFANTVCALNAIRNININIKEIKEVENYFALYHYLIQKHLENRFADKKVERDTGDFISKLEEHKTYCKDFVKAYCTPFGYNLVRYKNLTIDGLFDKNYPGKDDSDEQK
# Assay Details: crRNA (strand 1, pre-loaded); Mg2+; 40 mM Tris-HCl pH 7.5, 150 mM NaCl, 6 mM MgCl2, 1 mM DTT, 0.1% Tween-20, 0.2 mg/ml BSA; 25 C; 10 min per concentration, then washed
# Measurement Parameters: tags: His6-TwinStrep-SUMO cleaved; N-terminal SNAP kept (SNAP-Surface 488); label: 3' end held by stalled T7 RNA polymerase
Readout Name: Kd

In plain terms, target 1 MT 5'PFS UAG 3'PFS AUA (mixed) RNA 1: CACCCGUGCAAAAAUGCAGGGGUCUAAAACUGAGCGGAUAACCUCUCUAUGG RNA 2: GGGAAUGGAUCCACAUCUACGAAUUCUAGCCAUAGAGAGGUUAUCCGCUCAAUAAGAUCGGAAGAGCACACGU has a documented Kd of 31.3 nM

Recorded result, target 1 insG 3' of 4,insA 3' of 4 (mixed) RNA 1: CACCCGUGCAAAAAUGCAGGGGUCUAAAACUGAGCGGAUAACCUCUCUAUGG RNA 2: GGGAAUGGAUCCACAUCUACGAAUUCGUACCAUAGAGAGGUUAUCCGCGAUCACCGAGAUCGGAAGAGCACACGU , Kd: 4.63 nM

# Kd (binder: target 3 insA 3' of 21,insA 3' of 4 (mixed) RNA 1: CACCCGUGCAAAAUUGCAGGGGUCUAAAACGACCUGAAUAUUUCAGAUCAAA RNA 2: GGGAAUGGAUCCACAUCUACGAAUUCGUUUUAUGAUCUGAAAUAUUCAGAGUCUGCAGAUCGGAAGAGCACACGU ) is ~81.5 nM

The reported value for target 2 MT 5'PFS CGG 3'PFS CCG (mixed) RNA 1: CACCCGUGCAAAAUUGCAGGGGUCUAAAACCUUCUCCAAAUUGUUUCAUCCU RNA 2: GGGAAUGGAUCCACAUCUACGAAUUCCGGAGGAUGAAACAAUUUGGAGAAGCCGAGAUCGGAAGAGCACACGU in terms of Kd is 4.7 nM
